Reference source: patent US7118895B2

# Tested on: Crude diglycosidase
# assay-remarks: Examination of temperature in the conversion into isoflavone aglycons by diglycosidase using soybean materials
# Format: biochemical, Penicillium multicolor IAM7153
# condition-context: 55° C., heat treatment of enzyme yes, reaction time 6 h
Items are presented alongside their recorded Decomposition efficiency of genistin family in defatted soybean.
Record the value in %, omitting the unit from your answer.

**Q:** Recorded Decomposition efficiency of genistin family in defatted soybean of O=c1c(-c2ccc(O)cc2)coc2cc(O)cc(O)c12 [genistein] , please.
**A:** 51.9

**Q:** Recorded Decomposition efficiency of genistin family in defatted soybean of O=C(O)CC(=O)OC[C@H]1O[C@@H](Oc2cc(O)c3c(=O)c(-c4ccc(O)cc4)coc3c2)[C@H](O)[C@@H](O)[C@@H]1O [malonylgenistin, 6″-O-malonylgenistin] , please.
**A:** 47.8

**Q:** Recorded Decomposition efficiency of genistin family in defatted soybean of O=c1c(-c2ccc(O)cc2)coc2cc(O[C@@H]3O[C@H](CO)[C@@H](O)[C@H](O)[C@H]3O)cc(O)c12 [genistin] , please.
**A:** 0.0

**Q:** Recorded Decomposition efficiency of genistin family in defatted soybean of CC(=O)OC[C@H]1O[C@@H](Oc2cc(O)c3c(=O)c(-c4ccc(O)cc4)coc3c2)[C@H](O)[C@@H](O)[C@@H]1O [acetylgenistin, 6″-O-acetylgenistin] , please.
**A:** 0.4

###

# Test system: Crude diglycosidase
# assay-remarks: Examination of temperature in the conversion into isoflavone aglycons by diglycosidase using soybean materials
# Format: biochemical, Penicillium multicolor IAM7153
# Set-up: concentration or dose not given beside the values
# condition-context: 45 °C; heat treatment of enzyme: no; 6 h
quantity-kind: Decomposition efficiency of glycitin family in roasted soy flour

                           chem_smiles               target  meas_value
0  COc1cc2c(=O)c(-c3ccc(O)cc3)coc2cc1O  Crude diglycosidase       85.0%

**Q:** Recorded Decomposition efficiency of glycitin family in roasted soy flour of COc1cc2c(=O)c(-c3ccc(O)cc3)coc2cc1O[C@@H]1O[C@H](CO)[C@@H](O)[C@H](O)[C@H]1O , please.
**A:** 5.9%

**Q:** Recorded Decomposition efficiency of glycitin family in roasted soy flour of COc1cc2c(=O)c(-c3ccc(O)cc3)coc2cc1O[C@@H]1O[C@H](COC(C)=O)[C@@H](O)[C@H](O)[C@H]1O , please.
**A:** 9.1%

###

# Test system: Crude diglycosidase
# assay-remarks: Examination of substrate concentration in the conversion into isoflavone aglycons by diglycosidase using soybean materials;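 note: percent of the isoflavone family total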
# Format: biochemical, Penicillium multicolor IAM7153
# condition-context: concentrated soybean protein, substrate concentration 10%, heat treatment of enzyme no, reaction time 6 h
quantity-kind: Decomposition efficiency: ratio of each glycoside/aglycon within its isoflavone family

                                chem_smiles    meas_value
0  O=c1c(-c2ccc(O)cc2)coc2cc(O[C@@H]3O[C@H](CO)[C@@H](O)[C@H](O)[C@H]3O)cc(O)c12  not detected
1  O=c1c(-c2ccc(O)cc2)coc2cc(O[C@@H]3O[C@H](CO)[C@@H](O)[C@H](O)[C@H]3O)ccc12  not detected
2  CC(=O)OC[C@H]1O[C@@H](Oc2cc(O)c3c(=O)c(-c4ccc(O)cc4)coc3c2)[C@H](O)[C@@H](O)[C@@H]1O         33.2%
3  O=C(O)CC(=O)OC[C@H]1O[C@@H](Oc2ccc3c(=O)c(-c4ccc(O)cc4)coc3c2)[C@H](O)[C@@H](O)[C@@H]1O  not detected
